Carotid/Lung, mean overview
Test system: ApoE −/− mice, carotid artery
Experiment: Biodistribution in ApoE ligation model of atherosclerosis (ligated and sham)
Assay type: in vivo
Conditions: ApoE Ligated, 5 min post injection

Compound	Carotid/Lung, mean
NC(=O)[C@H](CCCCNC(=O)CON=Cc1ccc([18F])cc1)NC(=O)CCOCCOCCOCCOCCOCCOCCOCCOCCOCCOCCOCCNC(=O)CCOCCOCCOCCOCCOCCOCCOCCOCCOCCOCCOCCNC(=O)CCN(C1(C(=O)NO)CCCC1)S(=O)(=O)c1ccc(Oc2ccc(F)cc2)cc1 [Compound 48B]	0.75
NC(=O)[C@H](CCCCNC(=O)CON=Cc1ccc([18F])cc1)NC(=O)CCN(C1(C(=O)NO)CCCC1)S(=O)(=O)c1ccc(Oc2ccc(F)cc2)cc1 [Compound 46B]	0.35
O=C(CCN(C1(C(=O)NO)CCCC1)S(=O)(=O)c1ccc(Oc2ccc(F)cc2)cc1)NCCc1ccc(O)c([123I])c1 [Compound 24A]	0.62
NC(=O)[C@H](Cc1ccc(O)c([123I])c1)NC(=O)CCOCCOCCOCCOCCOCCOCCOCCOCCOCCOCCOCCNC(=O)CCOCCOCCOCCOCCOCCOCCOCCOCCOCCOCCOCCNC(=O)CCN(C1(C(=O)NO)CCCC1)S(=O)(=O)c1ccc(Oc2ccc(F)cc2)cc1 [Compound 32A]	1.01
